Values were extracted from ChEMBL document CHEMBL1649491.

# PROTOCOL DETAILS: Clearance in rat perfused kidney at 2 ug/ml after 5 to 105 mins by LC-MS/MS analysis
# Format: ADME, tissue-based
# TEST CONTEXT: perfused kidney
Positions of bridges follow the written chain, without caps; N, C: chain ends. Non-standard residues stand in square brackets, D forms with d. Residues, ends and D or L forms follow the SMILES beside them. *: point of attachment. Heptanoyl(6-Me) = CC(C)CCCCC(=O)*; Dab = NCC[C@H](N)C(=O)O
ENDPOINT: CL renal at 2 ug/ml
Reply with the number and its unit after it.

Reported CL renal at 2 ug/ml for CC(C)CCCCC(=O)N[C@@H](CCN)C(=O)N[C@H](C(=O)N[C@@H](CCN)C(=O)N[C@H]1CCNC(=O)[C@H]([C@@H](C)O)NC(=O)[C@H](CCN)NC(=O)[C@H](CCN)NC(=O)[C@H](CC(C)C)NC(=O)[C@@H](CC(C)C)NC(=O)[C@H](CCN)NC1=O)[C@@H](C)O [COLISTIN B] ({Heptanoyl(6-Me)}-[Dab]T[Dab][Dab][Dab][dL]L[Dab][Dab]T; lactam 4-C) : what is it?
0.028 mL/min

* * *

# PROTOCOL DETAILS: Fraction unbound in […] at 1 ug/ml by LC-MS/MS analysis
# Type: ADME, cell-free, Plasma
# TEST CONTEXT: rat
Positions of bridges follow the written chain, without caps; N, C: chain ends. Non-standard residues stand in square brackets, D forms with d. Residues, ends and D or L forms follow the SMILES beside them. *: point of attachment. Heptanoyl(6-Me) = CC(C)CCCCC(=O)*; Dab = NCC[C@H](N)C(=O)O
ENDPOINT: fraction unbound at 1 ug/ml

What fraction unbound at 1 ug/ml value was documented for this compound, CC(C)CCCCC(=O)N[C@@H](CCN)C(=O)N[C@H](C(=O)N[C@@H](CCN)C(=O)N[C@H]1CCNC(=O)[C@H]([C@@H](C)O)NC(=O)[C@H](CCN)NC(=O)[C@H](CCN)NC(=O)[C@H](CC(C)C)NC(=O)[C@@H](CC(C)C)NC(=O)[C@H](CCN)NC1=O)[C@@H](C)O [COLISTIN B] ({Heptanoyl(6-Me)}-[Dab]T[Dab][Dab][Dab][dL]L[Dab][Dab]T; lactam 4-C) ?
0.6

* * *

# PROTOCOL DETAILS: Fraction unbound in Sprague-Dawley rat plasma
# Format: ADME, cell-free
# TEST CONTEXT: Sprague-Dawley
Positions of bridges follow the written chain, without caps; N, C: chain ends. Non-standard residues stand in square brackets, D forms with d. Residues, ends and D or L forms follow the SMILES beside them. *: point of attachment. Heptanoyl(6-Me) = CC(C)CCCCC(=O)*; Dab = NCC[C@H](N)C(=O)O
ENDPOINT: fraction unbound
Write the value as a bare number.

Quick one: fraction unbound for CC(C)CCCCC(=O)N[C@@H](CCN)C(=O)N[C@H](C(=O)N[C@@H](CCN)C(=O)N[C@H]1CCNC(=O)[C@H]([C@@H](C)O)NC(=O)[C@H](CCN)NC(=O)[C@H](CCN)NC(=O)[C@H](CC(C)C)NC(=O)[C@@H](CC(C)C)NC(=O)[C@H](CCN)NC1=O)[C@@H](C)O [COLISTIN B] ({Heptanoyl(6-Me)}-[Dab]T[Dab][Dab][Dab][dL]L[Dab][Dab]T; lactam 4-C) ?
0.52
